# System: encephelomyocarditis virus
# Assay Summary: Antiviral assay: cytopathic effect in L929 cells
# Assay type: cell-based, mouse
# Condition Label: relative CM conc. .5X

[
  {
    "Molecule": "IL-28A: human IL-28A, previously designated zcyto20, SEQ ID NO:2 (protein, listed as Homo sapiens, SIGNAL (1)...(25)) MKLDMTGDCTPVLVLMAAVLTVTGAVPVARLHGALPDARGCHIAQFKSLSPQELQAFKRAKDALEESLLLKDCRCHSRLFPRTWDLRQLQVRERPMALEAELALTLKVLEATADTDPALVDVLDQPLHTLHHILSQFRACIQPQPTAGPRTRGRLHHWLYRLQEAPKKESPGCLEASVTFNLFRLLTRDLNCVASGDLCV",
    "Units Symbol": "%",
    "Percentage Cytopathic Effect": 87
  }
]
